assay-protocol: Lipophilicity, log P of the compound
Type: physicochemical
assay-context: octanol/water
measurement-label: logP

Worked cases, logP given:
{"compound": "Cc1nc2c(N[C@H]3c4ccccc4C[C@@H]3O)cc(C(=O)N(C)C)cn2c1C", "logP": 2.85}
{"compound": "CNC(=O)c1cc(N[C@H]2c3ccccc3C[C@@H]2O)c2nc(C)c(C)n2c1", "logP": 3.4}
{"compound": "COCCNC(=O)c1cc(N[C@H]2c3ccccc3C[C@@H]2O)c2nc(C)c(C)n2c1", "logP": 3.43}
{"compound": "COc1cccc2c1[C@H](Oc1cc(C(=O)N(C)C)cn3c(C)c(C)nc13)[C@@H](O)C2", "logP": 2.3}
{"compound": "Cc1nc2c(N[C@H]3c4ccccc4C[C@@H]3O)cc(C(N)=O)cn2c1C", "logP": 3.11}

A: Cc1cccc2c1[C@H](Oc1cc(C(=O)N(C)C)cn3c(C)c(C)nc13)[C@@H](O)C2
B: CCc1cccc(C)c1CNc1cc(C(N)=O)cn2c(C)c(C)nc12
Given A and B , report the one with the higher recorded logP. Your answer should be the label attached to the chosen record.
B
(B: 4.95, A: 2.59)

###

assay-protocol: Dissociation constant, pKa of the compound
Type: physicochemical
measurement-label: pKa

{"compound": "Cc1nc2c(O[C@H]3c4ccccc4C[C@@H]3O)cc(C(=O)N(C)C)cn2c1C", "pKa": 6.21}
{"compound": "COCCNC(=O)c1cc(N[C@H]2c3ccccc3C[C@@H]2O)c2nc(C)c(C)n2c1", "pKa": 6.01}
{"compound": "CNC(=O)c1cc(N[C@H]2c3ccccc3C[C@@H]2O)c2nc(C)c(C)n2c1", "pKa": 5.97}
{"compound": "CCc1cccc(C)c1CNc1cc(C(N)=O)cn2c(C)c(C)nc12", "pKa": 6.1}
{"compound": "Cc1cccc2c1[C@H](Oc1cc(C(=O)N(C)C)cn3c(C)c(C)nc13)[C@@H](O)C2", "pKa": 6.22}
{"compound": "Cc1nc2c(N[C@H]3c4ccccc4C[C@@H]3O)cc(C(=O)N(C)C)cn2c1C", "pKa": 6.24}
{"compound": "COc1cccc2c1[C@H](Oc1cc(C(=O)N(C)C)cn3c(C)c(C)nc13)[C@@H](O)C2", "pKa": 6.27}
{"compound": "Cc1nc2c(N[C@H]3c4ccccc4C[C@@H]3O)cc(C(N)=O)cn2c1C", "pKa": 5.97}

###

assay-protocol: Lipophilicity, log D at pH 7.4
Format: physicochemical
assay-context: buffer
measurement-label: logD

{"compound": "Cc1cccc2c1[C@H](Oc1cc(C(=O)N(C)C)cn3c(C)c(C)nc13)[C@@H](O)C2", "result": 2.56}
{"compound": "COCCNC(=O)c1cc(N[C@H]2c3ccccc3C[C@@H]2O)c2nc(C)c(C)n2c1", "result": 3.41}
{"compound": "Cc1nc2c(N[C@H]3c4ccccc4C[C@@H]3O)cc(C(N)=O)cn2c1C", "result": 3.09}

###

assay-protocol: Inhibition of H+/K+ ATPase in hog gastric mucosa by competitive binding assay
Assay type: tissue-based, Sus scrofa
measurement-label: Log IC50

Worked cases, Log IC50 given:
{"compound": "CNC(=O)c1cc(N[C@H]2c3ccccc3C[C@@H]2O)c2nc(C)c(C)n2c1", "result": -5.4}
{"compound": "Cc1nc2c(N[C@H]3c4ccccc4C[C@@H]3O)cc(C(=O)N(C)C)cn2c1C", "result": -6.3}
{"compound": "COCCNC(=O)c1cc(N[C@H]2c3ccccc3C[C@@H]2O)c2nc(C)c(C)n2c1", "result": -4.7}
{"compound": "CCc1cccc(C)c1CNc1cc(C(N)=O)cn2c(C)c(C)nc12", "result": -6.2}
{"compound": "COc1cccc2c1[C@H](Oc1cc(C(=O)N(C)C)cn3c(C)c(C)nc13)[C@@H](O)C2", "result": -5.7}

A: Cc1nc2c(N[C@H]3c4ccccc4C[C@@H]3O)cc(C(N)=O)cn2c1C
B: Cc1cccc2c1[C@H](Oc1cc(C(=O)N(C)C)cn3c(C)c(C)nc13)[C@@H](O)C2
Given A and B , report the one with the higher recorded Log IC50. Your answer should be the label attached to the chosen record.
A

###

assay-protocol: Lipophilicity, log D at pH 7.4
Type: physicochemical
assay-context: buffer
measurement-label: logD

Worked cases, logD given:
{"compound": "Cc1nc2c(O[C@H]3c4ccccc4C[C@@H]3O)cc(C(=O)N(C)C)cn2c1C", "result": 2.16}
{"compound": "Cc1nc2c(N[C@H]3c4ccccc4C[C@@H]3O)cc(C(=O)N(C)C)cn2c1C", "result": 2.82}

I: COc1cccc2c1[C@H](Oc1cc(C(=O)N(C)C)cn3c(C)c(C)nc13)[C@@H](O)C2
II: CCc1cccc(C)c1CNc1cc(C(N)=O)cn2c(C)c(C)nc12
III: CNC(=O)c1cc(N[C@H]2c3ccccc3C[C@@H]2O)c2nc(C)c(C)n2c1
Form: Sort by [logD] Order [ ascending ] # answer = labels listed in requested order
I, III, II
